Reference source: patent US8008299B2

Biological target: Human UII (U-II receptor) in 6D9 human rhabdomyosarcoma cells (Homo sapiens)
Construct: 6D9: isolated by dilution subcloning of RMS13 cells, ATCC® Number: CRL-2061; host or cells: 6D9 human rhabdomyosarcoma cells (subclone of RMS13)
Sequence (Q9UKP6 1-389): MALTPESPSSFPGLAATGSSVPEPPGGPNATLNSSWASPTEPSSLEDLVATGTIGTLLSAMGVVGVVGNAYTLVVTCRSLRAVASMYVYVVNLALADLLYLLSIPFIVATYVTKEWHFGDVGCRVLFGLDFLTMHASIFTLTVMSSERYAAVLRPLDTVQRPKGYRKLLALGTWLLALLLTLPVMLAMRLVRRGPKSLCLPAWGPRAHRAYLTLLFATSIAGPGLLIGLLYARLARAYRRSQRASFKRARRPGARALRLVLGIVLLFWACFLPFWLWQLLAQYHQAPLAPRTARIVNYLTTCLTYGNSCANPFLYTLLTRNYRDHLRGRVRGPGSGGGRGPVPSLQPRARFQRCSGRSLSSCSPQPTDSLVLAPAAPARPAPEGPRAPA
Assay: Human UII Calcium Mobilization Assay
Assay type: cell-based
Would you mind telling me the reported pIC50 of each entry?
One number for each entry, as −log10 of the molar value.

Recorded results for 2 molecules are shown here.
MOLECULE	pIC50
COc1ccc([C@@H](CCCN(C)S(=O)(=O)c2cccs2)N2Cc3c(cccc3N3CCN(C4CC4)CC3)C2=O)cc1OC	5.93
COc1ccc([C@@H](CCCNC(=O)c2cnoc2C)N2Cc3c(cccc3N3CCN(C(C)c4ccccc4)CC3)C2=O)cc1OC (stereo partly drawn)	6.49

Now, please, on to the next molecule.
Problem: Query: pIC50; subject: CCN1CCN(c2cccc3c2CN([C@H](CCCNC(=O)c2cccs2)c2ccc(OC)c(OC)c2)C3=O)CC1
Result: 6.86

====

Molecular target: UniProt:P49684
Sequence (P49684 whole entry): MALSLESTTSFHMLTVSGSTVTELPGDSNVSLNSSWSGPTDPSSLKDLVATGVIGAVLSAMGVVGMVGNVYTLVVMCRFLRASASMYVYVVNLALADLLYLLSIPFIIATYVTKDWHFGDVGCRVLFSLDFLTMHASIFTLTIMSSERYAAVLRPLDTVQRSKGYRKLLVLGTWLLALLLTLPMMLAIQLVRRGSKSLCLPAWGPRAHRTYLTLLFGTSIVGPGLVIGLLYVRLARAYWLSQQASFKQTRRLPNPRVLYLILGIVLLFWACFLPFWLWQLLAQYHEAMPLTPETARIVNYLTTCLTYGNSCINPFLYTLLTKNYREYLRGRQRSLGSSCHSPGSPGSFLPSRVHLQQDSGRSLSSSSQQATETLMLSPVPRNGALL
Experiment: Rat UII Calcium Mobilization FLIPR Assay
Conditions: CHO cells transfected with rat GPR14; antagonist activity after 5 min incubation vs agonist (Ac)-CFWK(2-NaI)C-NH2 at 1 nM
Please go through the items and note down their IC50.
One number for each entry, in nM.

Please review the entries below; each comes with its answer.
CHEMICAL_STRING	UNITS_SYMBOL	ENDPOINT_RESULT
CCN1CCN(c2cccc3c2CN([C@H](CCCN(C)Cc2ccccc2F)c2ccc(OC)c(OC)c2)C3=O)CC1	nM	4
CCN1CCN(c2cccc3c2CN([C@H](CCCOCc2ccccc2)c2ccc(OC)c(OC)c2)C3=O)CC1	nM	5
CCN1CCN(c2cccc3c2CN([C@H](CCCn2ccnc2)c2ccc(OC)c(OC)c2)C3=O)CC1	nM	45

Problem: Returns the measured IC50 for the input compound. Input: CCN1CCN(c2cccc3c2CN([C@H](CCCNCC(C)(C)C)c2ccc(OC)c(OC)c2)C3=O)CC1
Result: 37

====

Target: Human UII (U-II receptor) in 6D9 human rhabdomyosarcoma cells (Homo sapiens, UniProt Q9UKP6)
Construct: 6D9: isolated by dilution subcloning of RMS13 cells, ATCC® Number: CRL-2061; host or cells: 6D9 human rhabdomyosarcoma cells (subclone of RMS13)
Sequence (Q9UKP6 1-389): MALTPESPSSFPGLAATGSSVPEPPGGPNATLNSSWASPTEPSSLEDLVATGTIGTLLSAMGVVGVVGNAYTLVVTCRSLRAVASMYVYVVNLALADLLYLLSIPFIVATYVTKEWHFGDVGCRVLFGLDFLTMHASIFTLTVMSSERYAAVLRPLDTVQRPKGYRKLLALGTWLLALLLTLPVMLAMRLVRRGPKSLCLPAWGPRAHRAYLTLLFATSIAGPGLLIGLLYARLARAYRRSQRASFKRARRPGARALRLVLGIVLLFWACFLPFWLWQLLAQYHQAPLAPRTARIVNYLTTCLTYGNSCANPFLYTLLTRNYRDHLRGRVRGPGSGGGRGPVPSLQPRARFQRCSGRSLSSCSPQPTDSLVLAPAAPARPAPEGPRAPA
Experiment: Human UII Calcium Mobilization Assay
Format: cell-based
Details: 6D9 human rhabdomyosarcoma cells, FLIPR TETRA, average; read-out: Human UII Ca+ Mobilization Average IC50
RESULT_TYPE: pIC50
One number for each entry, as −log10 of the molar value.

Some entries whose results are on file:
COMPOUND	pIC50
COc1ccc([C@@H](CCCOc2ccccc2)N2Cc3c(cccc3N3CCN(C4CC4)CC3)C2=O)cc1OC [Cpd 28]	5.92
CCN1CCN(c2cccc3c2CN(C(CC2CCN(S(=O)(=O)c4cccs4)CC2)c2ccc(OC)c(OC)c2)C3=O)CC1 (stereo not drawn) [Cpd 18]	6.18
COc1ccc([C@@H](CCCN(C)S(=O)(=O)c2cccs2)N2Cc3c(cccc3N3CCN(C)CC3)C2=O)cc1OC [Cpd 26]	6.47

Below are some compounds; for each one, tell me its pIC50.
1. CCN1CCN(c2cccc3c2CN([C@H](CCCn2ncnn2)c2ccc(OC)c(OC)c2)C3=O)CC1 [Cpd 15]
2. CCN1CCN(c2cccc3c2CN([C@H](CCCn2cc(C)nc2C)c2ccc(OC)c(OC)c2)C3=O)CC1 [Cpd 102]
3. CCN1CCN(c2cccc3c2CN([C@H](CCCN(C)S(=O)(=O)c2cccs2)c2ccc(OC)c(OC)c2)C3=O)CC1 [Cpd 62]
4. CCN1CCN(c2cccc3c2CN([C@H](CCCNc2cccc[n+]2[O-])c2ccc(OC)c(OC)c2)C3=O)CC1 [Cpd 93]
5. CCN1CCN(c2cccc3c2CN([C@H](CCCNC(N)=O)c2ccc(OC)c(OC)c2)C3=O)CC1 [Cpd 64]

Result:
[5.80, 5.89, 7.06, 6.26, 5.44]
